test system: EKVX NSCLC; assay: NCI-60 one-dose screen, 48 h (100 = growth as untreated, 0 = no growth, -100 = all killed); settings: 10 µM unless noted
This is part of a sample that, as a whole, favours compounds with a hit. Of some 83,000 tested, about 20% had one in any assay.
Would you mind labelling by growth? At or over 50% is fulfilled, under is not fulfilled.

compound	experimental system	category
O=C(O)COc1ccc(F)cc1	EKVX NSCLC	fulfilled
CC(C)(C)[C@H](OCc1cn([C@H]2C[C@@H](O)[C@@H](CO)O2)c(=O)[nH]c1=O)c1ccc(C#Cc2ccccc2)cc1[N+](=O)[O-]	EKVX NSCLC	fulfilled
CCOC(=O)c1cnc2sc(-c3ccc(OC)cc3)nc2c1Cl	EKVX NSCLC	fulfilled
CC(C)n1nc(-c2ccc3oc(N)nc3c2)c2c(N)ncnc21	EKVX NSCLC	not fulfilled
O=C(O)c1nn(-c2ccc(Cl)cc2)nc1N1CCCC1	EKVX NSCLC	fulfilled
CCN1CCN(CCOc2ccc(CNc3ccc4nc(CCC5CCCCC5)[nH]c4c3)cc2)CC1	EKVX NSCLC	fulfilled
CCC(=C(c1ccc(OCCN(CC)CC)cc1)c1ccc(OCCN(CC)CC)cc1)c1ccc(Cl)cc1	EKVX NSCLC	fulfilled
N#CC1=C(N)Oc2c(ccc3ccccc23)C1c1cc2ccccc2n2nnnc12 (centres undefined)	EKVX NSCLC	fulfilled
Cn1ccnc1C(=O)/C=C/c1ccc(C(=O)Nc2c(F)c(F)c(F)c(F)c2F)cc1	EKVX NSCLC	not fulfilled
Clc1ccc(C2=Nn3c(nnc3-c3cc(Cl)cc(Cl)c3Cl)SC2)cc1	EKVX NSCLC	fulfilled
Cn1cc(-c2ccc3c(Nc4cccc(NC(=O)Nc5cccc(F)c5)c4)ncnc3c2)cn1	EKVX NSCLC	fulfilled
O=C1/C(=C/c2ccc(-c3ccc(Cl)cc3)o2)SC(=S)N1CCc1ccc(O)cc1	EKVX NSCLC	fulfilled
CCN(CC)c1ccc(/C=N/NC(=O)c2ccccc2Nc2ccnc(C(F)(F)F)c2)c(O)c1	EKVX NSCLC	not fulfilled
C=C(C)[C@@H]1CC[C@]2(COCCCNCCCN)CC[C@]3(C)[C@H](CC[C@@H]4[C@@]5(C)CC[C@H](OCCCN)C(C)(C)[C@@H]5CC[C@]43C)[C@@H]12	EKVX NSCLC	not fulfilled
